Biological target: human Nav1.6 ion channels (Homo sapiens)
Construct: host or cells: CHO
Sequence (Q9UQD0 whole entry): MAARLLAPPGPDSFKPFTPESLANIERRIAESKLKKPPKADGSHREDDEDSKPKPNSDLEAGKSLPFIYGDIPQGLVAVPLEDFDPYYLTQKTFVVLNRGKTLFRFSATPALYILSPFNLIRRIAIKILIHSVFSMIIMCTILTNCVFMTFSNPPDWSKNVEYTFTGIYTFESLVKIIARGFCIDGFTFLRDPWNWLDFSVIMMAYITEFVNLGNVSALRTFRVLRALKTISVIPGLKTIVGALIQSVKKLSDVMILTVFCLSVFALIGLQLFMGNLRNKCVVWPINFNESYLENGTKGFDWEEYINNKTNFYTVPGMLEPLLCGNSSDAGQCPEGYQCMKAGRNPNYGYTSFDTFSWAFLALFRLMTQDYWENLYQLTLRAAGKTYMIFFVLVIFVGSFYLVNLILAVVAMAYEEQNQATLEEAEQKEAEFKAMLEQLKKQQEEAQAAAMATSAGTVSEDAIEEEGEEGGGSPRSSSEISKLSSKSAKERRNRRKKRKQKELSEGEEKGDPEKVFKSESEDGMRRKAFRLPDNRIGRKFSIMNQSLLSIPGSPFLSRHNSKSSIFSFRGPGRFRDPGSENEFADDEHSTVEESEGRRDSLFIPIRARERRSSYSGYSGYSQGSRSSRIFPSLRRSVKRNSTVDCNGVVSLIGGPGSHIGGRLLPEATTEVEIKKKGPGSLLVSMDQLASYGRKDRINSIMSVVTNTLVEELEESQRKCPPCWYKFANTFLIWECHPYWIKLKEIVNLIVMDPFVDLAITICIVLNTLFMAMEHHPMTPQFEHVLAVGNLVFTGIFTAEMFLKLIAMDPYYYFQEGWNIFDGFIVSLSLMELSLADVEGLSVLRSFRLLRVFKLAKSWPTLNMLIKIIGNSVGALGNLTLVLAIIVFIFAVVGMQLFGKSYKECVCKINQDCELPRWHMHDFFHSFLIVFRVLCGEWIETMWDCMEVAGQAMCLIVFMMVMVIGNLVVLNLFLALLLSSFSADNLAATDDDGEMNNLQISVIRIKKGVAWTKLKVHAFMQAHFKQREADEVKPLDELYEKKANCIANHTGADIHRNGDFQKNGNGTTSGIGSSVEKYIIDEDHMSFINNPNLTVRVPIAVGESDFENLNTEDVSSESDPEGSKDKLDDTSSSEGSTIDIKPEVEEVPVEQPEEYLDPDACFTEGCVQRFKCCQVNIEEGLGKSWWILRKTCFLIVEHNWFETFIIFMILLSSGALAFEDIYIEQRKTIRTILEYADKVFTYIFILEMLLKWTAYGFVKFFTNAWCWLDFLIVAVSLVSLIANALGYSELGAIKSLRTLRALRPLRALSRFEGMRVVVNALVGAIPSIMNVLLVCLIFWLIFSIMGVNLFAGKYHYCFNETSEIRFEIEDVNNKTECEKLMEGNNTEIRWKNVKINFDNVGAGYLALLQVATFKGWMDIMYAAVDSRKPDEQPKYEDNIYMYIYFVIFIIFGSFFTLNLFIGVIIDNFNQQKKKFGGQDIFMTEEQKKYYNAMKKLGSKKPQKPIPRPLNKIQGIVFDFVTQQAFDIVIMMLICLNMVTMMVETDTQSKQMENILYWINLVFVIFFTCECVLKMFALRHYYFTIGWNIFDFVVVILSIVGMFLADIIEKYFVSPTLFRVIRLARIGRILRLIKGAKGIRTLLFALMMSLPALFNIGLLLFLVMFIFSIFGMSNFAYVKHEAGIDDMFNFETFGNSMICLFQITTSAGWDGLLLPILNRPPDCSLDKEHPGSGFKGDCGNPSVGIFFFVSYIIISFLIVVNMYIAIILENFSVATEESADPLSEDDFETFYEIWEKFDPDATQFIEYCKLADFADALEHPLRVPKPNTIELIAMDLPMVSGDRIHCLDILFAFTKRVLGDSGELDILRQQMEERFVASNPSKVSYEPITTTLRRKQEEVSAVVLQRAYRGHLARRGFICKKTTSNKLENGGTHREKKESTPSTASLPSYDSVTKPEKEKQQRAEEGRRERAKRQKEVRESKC
Assay: IonWorks electrophysiological assay on CHO cells expressing human Nav1.6
Type: cell-based
Settings: inactivated state inhibition (Pulse 2), CHO human Nav1.6 expressing cells, read-out: Nav1.6 Inactivated
value_kind: IC50 (nM)
Numbers only, in nM.

Take a look at these entries with their results.
# compound, value_kind, unit_abbrev, quantitative_result
measured = [
    ("CC1(C(=O)N2CCc3cccc(C(F)(F)F)c3C2)CCN(Cc2cccc(Oc3ccccc3)c2)C1 (racemic)", "IC50", "nM", 1970),
    ("CC1(C(=O)N2CCOCC2)CCN(Cc2cccc(Oc3ccccc3)c2)C1 (racemic)", "IC50", "nM", 733),
]

Below are 6 compounds. Give each one its IC50.
1. COC1CCCN(C(=O)C2CCN(Cc3cccc(Oc4ccccc4)c3)C2)C1 (racemic)
2. CC1(C(=O)NCc2ccncc2)CCN(Cc2cccc(Oc3ccccc3)c2)C1 (racemic)
3. CCNC(=O)[C@@]1(C)CCN(Cc2cccc(Oc3ccccc3)c2)C1 (single isomer, unassigned)
4. O=C(NCc1cccnc1)[C@@H]1CCN(Cc2cccc(Oc3ccccc3)c2)C1
5. COCCNC(=O)C1CCN(Cc2cccc(Oc3ccccc3)c2)C1 (racemic)
6. CCCNC(=O)C1(C)CCN(Cc2cccc(Oc3ccccc3)c2)C1 (centres unmarked)

OUT:
1890
940
808
1300
1180
1030
